Documented growth across a set of compounds
test system: SN12C renal; experiment: NCI-60 one-dose screen, 48 h (100 = growth as untreated, 0 = no growth, -100 = all killed); conditions: 10 µM unless noted
This is part of a sample that, as a whole, favours compounds with a hit. Of some 83,000 tested, about 20% had one in any assay. Calls of active or inactive are those of the source. Rule for the calls: active = growth percent below 10; inactive = the rest.

[
  {
    "Compound": "OC(CBr)c1ccnc2ccccc12 (stereo unspecified)",
    "Study Target": "SN12C renal",
    "Measured Value": "99.6% (inactive)"
  },
  {
    "Compound": "CC1(C)C(=O)/C(=C\\c2cccnc2)C[C@]2(C)[C@H]3CC=C4[C@@H]5C[C@@](C)(C(=O)O)CC[C@]5(C)CC[C@@]4(C)[C@]3(C)CC[C@@H]12",
    "Study Target": "SN12C renal",
    "Measured Value": "94.2% (inactive)"
  },
  {
    "Compound": "C=C(C)[C@@H]1CC[C@]2(CN)CC[C@]3(C)[C@H](CC[C@@H]4[C@@]5(C)CCC(N)[C@@](C)(CO)[C@@H]5CC[C@]43C)[C@@H]12 (stereo partly specified)",
    "Study Target": "SN12C renal",
    "Measured Value": "-69.3% (active)"
  }
]

Field request: growth | item: `COc1cc2oc3cc(C)oc(=O)c3c2cc1OC` 92.8% (inactive)

Okay, and `Cc1c(Cl)cccc1NS(=O)(=O)c1ccccc1` ? 103% (inactive)

Okay, and `CCOC(=O)c1ccc(NC(=O)CCCN(CC)CC)cc1` ? 106% (inactive)

Okay, and C=C(C=O)C1CCC2(C(=O)O)CCC3(C)C(CCC4C5(C)CCC(O)C(C)(C)C5CCC43C)C12 (stereo unspecified) ? 21.5% (inactive)

Okay, and `Cc1[nH]c(-c2nc3ccccc3[nH]2)c(C)c1C(=O)NNc1ccc(Cl)cc1` ? 90.7% (inactive)

Okay, and CC(C)CCC[C@@H](C)[C@H]1CCC2C3=CCC4C(=O)C=CC(=O)C4C3CC[C@@]21C (stereo partly specified) ? 20.1% (inactive)

====

system: DU-145 prostate; experiment: NCI-60 one-dose screen, 48 h; conditions: 10 µM unless noted
The panel holds about 83,000 compounds, 20% with a hit somewhere; the sample as a whole holds those more often. The source made the active and inactive calls. Rule for the calls: active = growth percent below 10; inactive = the rest.
Mark one answer only. Choices: active, inactive

[
  {
    "Molecule": "COc1ccc2c(c1)/C(=C\\c1sc(=S)[nH]c1O)C(C(=O)O)=N2",
    "Study Target": "DU-145 prostate",
    "Label Class": "inactive"
  }
]

I would be grateful if you could indicate the recorded call for `NS(=O)(=O)c1cnccc1-n1ccc(=O)c(S(N)(=O)=O)c1` . inactive

====

tested on: NCI-H322M lung; assay: NCI-60 one-dose screen, 48 h (100 = growth as untreated, 0 = no growth, -100 = all killed); conditions: 10 µM unless noted
This is part of a sample that, as a whole, favours compounds with a hit. Of some 83,000 tested, about 20% had one in any assay.
Documented growth across a set of compounds
Write down the numeric answer in % and omit the unit.

// below: answered compounds
[
  {
    "Chem Smiles": "CCOc1cc(N)ccc1C(=O)NCCCN(CC)CC",
    "Study Target": "NCI-H322M lung",
    "Measured Value": 100
  },
  {
    "Chem Smiles": "C=C1C(=O)O[C@H]2[C@H]1CC/C(C(=O)NCCCCCCCCNC(=O)/C1=C/CC[C@@]3(C)O[C@H]3[C@H]3OC(=O)C(=C)[C@@H]3CC1)=C\\CC[C@@]1(C)O[C@@H]21",
    "Study Target": "NCI-H322M lung",
    "Measured Value": 94.9
  }
]

Field request: growth | item: `COc1ccc(-c2cn(-c3cccc(C(=O)/C=C/c4cc(OC)c(OC)c(OC)c4)c3)c(=O)[nH]2)cc1` 106

Okay, and `O=S(=O)(NCCNc1cc(-c2c(-c3cccc(O)c3)nc3sccn23)ccn1)c1ccc(Br)cc1` ? 81.1

Okay, and `CC1(C)N=C(N)N=C(N)N1c1cccc(CN)c1` ? 94.3

====

test system: EKVX NSCLC; experiment: NCI-60 one-dose screen, 48 h; conditions: 10 µM unless noted
This is part of a sample that, as a whole, favours compounds with a hit. Of some 83,000 tested, about 20% had one in any assay. Calls of active or inactive are those of the source. How the source made its calls: active means growth percent below 10; inactive means the rest.
Mark one answer only. Choices: Y = active, N = inactive

I would be grateful if you could indicate the recorded call for COc1ccc(-n2sc(=O)n(Cc3ccc(COC(=O)C(C)c4ccc(CC(C)C)cc4)cc3)c2=O)cc1 (stereo unspecified) . N

Okay, and `Cn1nnnc1-c1ccc(N)cc1` ? N

Okay, and `N#Cc1c(N)n2c(nc1=Nc1ccc(Cl)cc1)sc1cc(Cl)ccc12` ? N

====

Documented growth across a set of molecules
tested on: NCI-H460 lung; test: NCI-60 one-dose screen, 48 h (100 = growth as untreated, 0 = no growth, -100 = all killed); settings: 10 µM unless noted
The panel holds about 83,000 compounds, 20% with a hit somewhere; the sample as a whole holds those more often.
Write down the numeric answer in % and omit the unit.

// below: answered molecules
[
  {
    "Molecule": "Cc1ccc2c(n1)C(=O)C(Oc1ccc(F)cc1)=CC2=O",
    "Study Target": "NCI-H460 lung",
    "Endpoint Unit": "%",
    "growth": 101
  },
  {
    "Molecule": "CC(C)(C)c1ccc(C(=O)Nc2sc3c(c2C(N)=O)CCC(=O)C3)cc1",
    "Study Target": "NCI-H460 lung",
    "Endpoint Unit": "%",
    "growth": -10.7
  },
  {
    "Molecule": "CCN(CC)CCCC(C)NCc1ccccc1 (configuration not stated)",
    "Study Target": "NCI-H460 lung",
    "Endpoint Unit": "%",
    "growth": 106
  },
  {
    "Molecule": "CCOC(=O)c1sc(-c2ccc(OS(=O)(=O)c3ccc(C(C)(C)C)cc3)c(C=O)c2)nc1C",
    "Study Target": "NCI-H460 lung",
    "Endpoint Unit": "%",
    "growth": 41.7
  },
  {
    "Molecule": "Clc1ccc2[nH]c3c(NCCCN4CCOCC4)ncnc3c2c1",
    "Study Target": "NCI-H460 lung",
    "Endpoint Unit": "%",
    "growth": 69.3
  },
  {
    "Molecule": "CCOc1ccc(-c2nc3ccc(-c4nc5ccc(N6CCN(C)CC6)cc5[nH]4)cc3[nH]2)cc1OCC",
    "Study Target": "NCI-H460 lung",
    "Endpoint Unit": "%",
    "growth": 17.2
  },
  {
    "Molecule": "CC(C)n1nc(C#Cc2cccc3cc(-c4cccc(C(F)(F)F)c4)ncc23)c2c(N)ncnc21",
    "Study Target": "NCI-H460 lung",
    "Endpoint Unit": "%",
    "growth": 48.9
  },
  {
    "Molecule": "Cc1[nH]c(-c2nc3ccccc3[nH]2)c(C)c1C(=O)N1CCOCC1",
    "Study Target": "NCI-H460 lung",
    "Endpoint Unit": "%",
    "growth": 101
  }
]

Field request: growth | item: `COc1cc(/C=C/c2nc(Nc3ccc(S(=O)(=O)Nc4cc(C)on4)cc3)c3ccccc3n2)ccc1O` 65.5

Okay, and `COc1ccc(N(C)c2nc(Cl)nc3cnn(C)c23)cc1` ? 7.51

Okay, and `CCN(CC)CC(=O)Nc1cccc(C(=O)OC(C)C)c1` ? 112

====

Documented growth across a set of compounds
tested on: OVCAR-5 ovarian; test: NCI-60 one-dose screen, 48 h (100 = growth as untreated, 0 = no growth, -100 = all killed); conditions: 10 µM unless noted
About 83,000 compounds went through this panel and 20% of them were active in at least one assay; those are over-represented in the sample as a whole.
Write down the numeric answer in % and omit the unit.

// below: answered compounds
[
  {
    "Chem Smiles": "COc1cc2cc(Oc3ccc(NC(=O)Nc4cc(C(F)(F)F)cc(C(F)(F)F)c4)cc3)c(C)nc2cc1OCCN1CCCCC1",
    "Measured Value": -65.9
  },
  {
    "Chem Smiles": "COc1cc(CNC(=O)/C=C/C=C/c2ccc3c(c2)OCO3)ccc1OCc1cn(-c2ccc(Cl)c(Cl)c2)nn1",
    "Measured Value": -19.8
  },
  {
    "Chem Smiles": "O=C(Nc1ccccn1)[C@H](O)[C@@H](O)C(=O)N1CCOCC1",
    "Measured Value": 118
  },
  {
    "Chem Smiles": "Cc1nc(Nc2cccc(NC(=O)Nc3ccc(Cl)cc3)c2)c2ccccc2n1",
    "Measured Value": 106
  }
]

Moving on to the next compound.
Missing value: growth, OVCAR-5 ovarian, entry `N#C/C(=C\c1ccc2c(c1)OCO2)n1nnc2ccccc21` . Fill in? -17.5
